- PROCEDURE TEXT: Resistance to Poly (ADP-Ribose) Polymerase inhibitor: Gene Identification via Genome-wide siRNA Screen
- TEST CONDITIONS: mouse BRCA2 R2336H ES cells, olaparib, CellTiter-Glo viability
The campaign covered roughly 52,000 sequences. About 210 (0.4%) were called active.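 Rule for the calls: active = gene whose silencing raises cell survival under the drug, median off-target-corrected z-score across its silencing RNAs 2 or more; inactive = the rest.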 Only a selection was taken, and actives are over-represented in it overall.
In this exercise, the only acceptable responses are TRUE (active), FALSE (inactive)

[Q] Test call, this sequence: GCCAGUGCACUCCUCUUUUTT against Mmrp19
[A] FALSE

[Q] Test call, this sequence: GGUACUGGAGAAAGUCAAGTT against Pik4cb
[A] FALSE

[Q] Test call, this sequence: GGAAUCGUCUGAGAAAUUCTT against Lgmn
[A] FALSE

[Q] Test call, this sequence: GGUGGUGUUUCAUAAGAUGTT against Rragc
[A] FALSE

[Q] Test call, this sequence: GCCCUAGAACUUUUGAAUUTT against Dhx15
[A] FALSE

[Q] Test call, this sequence: GGGCUAAAGUAUAUCCAUUTT against Mapk1
[A] TRUE

[Q] Test call, this sequence: AUGUGAUAGUGCCCAGCCUTT against Olfr884
[A] FALSE

[Q] Test call, this sequence: GCUAAUUUGACAAAGACGGTT against Bfsp2
[A] FALSE

[Q] Test call, this sequence: UCAAACUAGGUGCUGUUGUTT against Olfr584
[A] TRUE

[Q] Test call, this sequence: GCACGUAGUAAGAUGUUACTT against Rqcd1
[A] TRUE

[Q] Test call, this sequence: GCGAGUUGGAAUUGAGAUCTT against Casp8
[A] FALSE

[Q] Test call, this sequence: GGUCCUUCCAUAGUGACGCTT against Igfbp7
[A] FALSE

[Q] Test call, this sequence: GGAAAUACCCUGAUAGCCATT against 9430077C05Rik
[A] FALSE

[Q] Test call, this sequence: GCAAGCAGAUCUGAUAUCATT against 2700050F09Rik
[A] TRUE

[Q] Test call, this sequence: GGUUGCUUGGAAUUAAAAGTT against Klhl1
[A] TRUE

[Q] Test call, this sequence: GUUGGUAAAGGUCCUUGCCTT against D17Wsu155e
[A] FALSE

[Q] Test call, this sequence: GCAUGAAAACACGUUUGGGTT against Hdac11
[A] FALSE

[Q] Test call, this sequence: GAAGAUCCACUUCAUCGCCTT against Psmb10
[A] FALSE

[Q] Test call, this sequence: GCAAGUAUUAAGUAUGACGTT against Vps13c
[A] FALSE

[Q] Test call, this sequence: GCCAACUCAGUUUUGAAUGTT against 4930404J24Rik
[A] FALSE

[Q] Test call, this sequence: GGAAAUCACCAGAGCUGAUTT against Atp6v0a2
[A] FALSE

[Q] Test call, this sequence: GGUCCUCUAAAGAAUAAAGTT against Ela3b
[A] TRUE

[Q] Test call, this sequence: GGAUUCUGCCUGAUCAAUGTT against 1110008F13Rik
[A] FALSE

[Q] Test call, this sequence: GGACCUCAGCGAAGACAAUTT against BC034097
[A] TRUE

[Q] Test call, this sequence: GGACAAGGAUAGUAGUAAGTT against Adprt1
[A] TRUE

[Q] Test call, this sequence: GGGAAAAAUAUCAGUUAUGTT against Khdrbs1
[A] TRUE

[Q] Test call, this sequence: GGAUGCUACGUUCUGCUAGTT against Bcat2
[A] FALSE

[Q] Test call, this sequence: UUGUCCUGGUCUCCUAUGCTT against Olfr141
[A] FALSE

[Q] Test call, this sequence: AACAGCAUCUUUGUGGUCCTT against Ins1
[A] FALSE

[Q] Test call, this sequence: GGCCAAUUUGAAUAAUCUATT against Zfp119
[A] FALSE

[Q] Test call, this sequence: GCUUGAUCAACAAGUGGAGTT against Nup62
[A] FALSE

[Q] Test call, this sequence: GGGCACCUAUUCAGAUACCTT against Mtap2
[A] FALSE

[Q] Test call, this sequence: CCCUGAACGAAUAAUCGGCTT against Cbx3
[A] FALSE

[Q] Test call, this sequence: GGGUGAAAAGCAUUUCUGUTT against MGI:1923902
[A] FALSE

[Q] Test call, this sequence: GGAGUAAUCAUGCUGGAGCTT against 9930104L06Rik
[A] FALSE

[Q] Test call, this sequence: GGAGUUGAUCAAGACAGAGTT against S100a5
[A] FALSE

[Q] Test call, this sequence: GGGAGAGGCACAAAGCAUATT against Ubxd3
[A] FALSE

[Q] Test call, this sequence: GGUGAAAACCCUAACAGUCTT against A130007F10Rik
[A] FALSE

[Q] Test call, this sequence: GGACAAAGGUGUCAACUCCTT against Crmp1
[A] FALSE

[Q] Test call, this sequence: GGGUUUUUUUUUUCCUUCCTT against Hsd17b1
[A] TRUE

[Q] Test call, this sequence: GCCGUUUUAUUCACGUGAATT against 1810033M07Rik
[A] FALSE

[Q] Test call, this sequence: GGUGGCACUCUUUCAGAUCTT against 6030446I19Rik
[A] FALSE

[Q] Test call, this sequence: CGAACAGUCUGUAUGGCGATT against Jak1
[A] TRUE

[Q] Test call, this sequence: GGAGACGUGUCUGAAAGACTT against Glp2r
[A] FALSE

[Q] Test call, this sequence: GGCUAAUGUGCUCUCUCAUTT against Olfr644
[A] FALSE

[Q] Test call, this sequence: CCAACUCUGUUACAUUAUGTT against Fshprh1
[A] FALSE

[Q] Test call, this sequence: GGAAUGUUCUGUCGCUAUGTT against Nrp1
[A] FALSE

[Q] Test call, this sequence: GGAGAACACUUUAAUGCUGTT against 9230106D23Rik
[A] FALSE

[Q] Test call, this sequence: GGUCUAUACCAUCCUAUUGTT against Faim2
[A] FALSE
